System: TAB113
Assay: qHTS profiling for inhibitors of Plasmodium falciparum proliferation (AID 504749); further: nearly all actives have a fitted effect of over 60% in size
Conditions: P. falciparum in erythrocytes, SYBR Green DNA, 72 h; series mostly up to 28.7 µM
Inconclusive results are not listed. Active and inactive are the calls of the source. The call rests on the fitted dose curve; in most records, active means well fitted inhibition curve with a large enough effect; inconclusive means small, poorly fitted or top-dose-only effect; inactive means flat fitted curve, though single readings scatter.
Mark one answer only. Choices: yes = active, no = inactive

>  <molecule>
CS(=O)(=O)c1ccc(C2=C(c3ccccc3)C(=O)OC2)cc1

>  <classification>
no

$$$$
>  <molecule>
Clc1ccc(COC(Cn2ccnc2)c2ccc(Cl)cc2Cl)c(Cl)c1 (stereo not given)

>  <classification>
yes

$$$$
>  <molecule>
Cc1cc2nc3c(=O)[nH]c(=O)nc-3n(CC(O)C(O)C(O)CO)c2cc1C (stereo not given)

>  <classification>
no

$$$$

Dear all, I need the recorded test outcome for C=C1c2cccc(O)c2C(O)=C2C(=O)[C@@]3(O)C(O)=C(C(N)=O)C(=O)[C@@H](N(C)C)[C@@H]3[C@@H](O)[C@H]12 , thank you.
no

Dear all, I need the recorded test outcome for CN1CCN2c3ncccc3Cc3ccccc3C2C1 (stereo not given) , thank you.
no

###

Experiment: Quantitative High-Throughput drug screen in 47 multiple myeloma cell lines against the NCATS MIPE library collection: L363_DSMZ cell viability assay (AID 1918984); further: nearly all actives have a fitted effect of over 40% in size
Conditions: L363 myeloma viability, CellTiter-Glo ATP luminescence, 48 h
Results filed as inconclusive are left out. The source made the active and inactive calls. Calls come from the whole dose curve; as a rule, active = well fitted cell-killing curve with a large enough effect; inconclusive = small, poorly fitted or top-dose-only effect, or effect the other way; inactive = no such curve, though single readings can be large or run the other way.
Mark one answer only. Choices: active, inactive

Some entries whose results are on file:
>  <molecule>
CC(C)CNc1ccnc(NCc2csc(-c3ccccc3)n2)n1

>  <classification>
active

$$$$
>  <molecule>
FC(F)(F)c1ccc(C=Cc2nc(COc3ccc(CCCCn4ccnn4)cc3)co2)cc1

>  <classification>
active

$$$$
>  <molecule>
O=C1CN2Cc3c(ccc(Cl)c3Cl)N=C2N1

>  <classification>
inactive

$$$$
>  <molecule>
COC1CCC(C(=O)c2ccc3nc4c(cc3c2)CCCO4)CC1 (stereo unspecified)

>  <classification>
active

$$$$
>  <molecule>
Cn1c(=O)c(-c2c(Cl)cccc2Cl)cc2cnc(Nc3cccc(C(=O)O)c3)nc21

>  <classification>
active

$$$$

Dear all, I need the recorded test outcome for CC1=C[C@@H]2[C@@H]([C@@H](O)C[C@@]3(C)[C@H]2C[C@@H](C)[C@]3(O)C(=O)CO)[C@@]2(C)Cc3cnn(-c4ccccc4)c3C=C12 , thank you.
active

###

Test: qHTS of pediatric cancer cell lines to identify multiple opportunities for drug repurposing: Primary screen for SK-N-MC cells (AID 1347093)
Settings: SK-N-MC viability, CellTiter-Glo luminescence, 48 h; series mostly up to 46 µM
Inconclusive results are not listed. The source made the active and inactive calls. Calls come from the whole dose curve; as a rule, active = well fitted cell-killing curve with a large enough effect; inconclusive = small, poorly fitted or top-dose-only effect; inactive = no such curve, though single readings can be large or run the other way.
Mark one answer only. Choices: active, inactive

Dear all, I need the recorded test outcome for CCC(=O)N1CCN(c2ccc(-n3c(=O)ccc4cnc5ccc(-c6cnc7ccccc7c6)cc5c43)cc2C(F)(F)F)CC1 , thank you.
active

###

Test system: CRL-7250
Experiment: Cytotoxic Profiling of Annotated Libraries Using Quantitative High-Throughput Screening (AID 1296008); further: nearly all actives have a fitted effect of over 60% in size; on max response: on the % scale 0 is the no-effect control and ±100 the full control effect
Details: Five cell lines viability, CellTiter-Glo ATP luminescence, 48-72 h; stronger effect = lower value
Records with an inconclusive call do not appear.
Field: max response. Provide a value for each of the compounds that follow.
Give bare numbers, in %.

Worked cases, answers included:
>  <compound>
CN1CCN2c3ncccc3Cc3ccccc3C2C1 (stereo not given)

>  <display.unit>
%

>  <max response>
-0.363

$$$$
>  <compound>
O=C(Nc1cccc(C(F)(F)F)c1)Nc1cc(S(=O)(=O)NC2CC2)ccc1-c1ccsc1

>  <display.unit>
%

>  <max response>
-35.6

$$$$
>  <compound>
O=c1cc(-c2ccc(O)c(O)c2)oc2cc(O)cc(O)c12

>  <display.unit>
%

>  <max response>
4.28

$$$$
>  <compound>
COc1ccc(-c2cc(=O)c3c(O)cc(O[C@@H]4O[C@H](CO[C@@H]5O[C@@H](C)[C@H](O)[C@@H](O)[C@@H]5O)[C@@H](O)[C@H](O)[C@@H]4O)cc3o2)cc1O

>  <display.unit>
%

>  <max response>
-4.94

$$$$

Would you kindly look at the next entry?
# max response of C[C@@H]1CC=CC=CC=CC=C[C@@H](O[C@@H]2O[C@H](C)[C@@H](O)[C@H](N)[C@H]2O)C[C@@H]2O[C@](O)(C[C@@H](O)C[C@@H]3O[C@@H]3C=CC(=O)O1)C[C@H](O)[C@@H]2C(=O)O = -2.36

###

Test system: CRL-7250
Experiment: Cytotoxic Profiling of Annotated Libraries Using Quantitative High-Throughput Screening (AID 1296008); further: nearly all actives have a fitted effect of over 60% in size
Details: Five cell lines viability, CellTiter-Glo ATP luminescence, 48-72 h
Records with an inconclusive call do not appear. The source made the active and inactive calls. Calls come from the whole dose curve; as a rule, active = well fitted inhibition curve with a large enough effect; inconclusive = small, poorly fitted or top-dose-only effect; inactive = flat fitted curve, though single readings scatter.
Mark one answer only. Choices: active, inactive

Some entries whose results are on file:
>  <compound>
C=C[C@@H]1CN2CCC1C[C@@H]2C(O)c1ccnc2ccc(OC)cc12 (stereo partly drawn)

>  <classification>
inactive

$$$$
>  <compound>
c1cc(OCCN2CCCCC2)cc(-c2n[nH]c3ccc(-c4ncn[nH]4)cc23)c1

>  <classification>
inactive

$$$$
>  <compound>
O=C(CCCN1CCN(c2ccc(F)cc2)CC1)NC1c2ccccc2CSc2ccccc21 (stereo not drawn)

>  <classification>
active

$$$$

Dear all, I need the recorded test outcome for COC(=O)Nc1ccc(-c2nc(N3CCOCC3)c3cnn(C4CCN(C(=O)OC)CC4)c3n2)cc1 , thank you.
active

Dear all, I need the recorded test outcome for CC1=C(C(=O)Nc2cc3cn[nH]c3cc2F)C(c2ccc(C(F)(F)F)cc2)CC(=O)N1 (stereo not drawn) , thank you.
inactive

Dear all, I need the recorded test outcome for c1ccc(CNc2nc(N3CCOc4ccccc43)nc3c2CCCC3)cc1 , thank you.
inactive

Dear all, I need the recorded test outcome for Cc1cnc(Nc2cccc(CN3CCOCC3)c2)nc1Nc1cccc(S(=O)(=O)NC(C)(C)C)c1 , thank you.
inactive

Dear all, I need the recorded test outcome for Cc1ccc(C2=Nc3ccc(Cl)cc3OC2)cc1 , thank you.
inactive

Dear all, I need the recorded test outcome for CCOC(=O)[C@@H](N)CCC(=O)N[C@@H](CSCc1ccccc1)C(=O)N[C@@H](C(=O)OCC)c1ccccc1 , thank you.
inactive

Dear all, I need the recorded test outcome for C=CC[N+]1([C@H]2C[C@H]3[C@@H]4CC[C@H]5C[C@H](O)[C@@H](N6CCOCC6)C[C@]5(C)[C@@H]4CC[C@]3(C)[C@H]2OC(C)=O)CCCC1 , thank you.
inactive

Dear all, I need the recorded test outcome for CC1(C)[C@H]2CC[C@]3(C)[C@@H](C(=O)C=C4[C@@H]5C[C@@](C)(C(=O)O)CC[C@]5(C)CC[C@]43C)[C@@]2(C)CC[C@@H]1O , thank you.
inactive

Dear all, I need the recorded test outcome for O=C(c1ccc(F)c(F)c1Nc1ccc(I)cc1F)N1CC(O)([C@H]2CCCCN2)C1 , thank you.
active

Dear all, I need the recorded test outcome for O=C1NC(=O)C(c2cnc3ccccn23)=C1c1cn2c3c(cccc13)CN(C(=O)N1CCOCC1)CC2 , thank you.
active

Dear all, I need the recorded test outcome for CC[C@H](NC(=O)[C@H](C)NC)C(=O)N1C[C@@H](O)C[C@H]1Cc1c(-c2[nH]c3cc(F)ccc3c2C[C@H]2C[C@H](O)CN2C(=O)[C@H](CC)NC(=O)[C@H](C)NC)[nH]c2cc(F)ccc12 , thank you.
inactive

Dear all, I need the recorded test outcome for Nc1ncnc2c1c(-c1cccc(OCc3ccccc3)c1)cn2C1CC(CN2CCC2)C1 (stereo not drawn) , thank you.
inactive

Dear all, I need the recorded test outcome for O=C(O)C1=NC(C(=O)O)CC(C=CN2c3cc(O)c(OC4OC(CO)C(O)C(O)C4O)cc3CC2C(=O)O)=C1 (stereo not drawn) , thank you.
inactive

Dear all, I need the recorded test outcome for CC(=O)Nc1cccc(-n2c(=O)n(C3CC3)c(=O)c3c(Nc4ccc(I)cc4F)n(C)c(=O)c(C)c32)c1 , thank you.
active

Dear all, I need the recorded test outcome for CN(C)CCOc1ccc(-c2nc(-c3ccc4c(c3)CCC4=NO)c(-c3ccncc3)[nH]2)cc1 , thank you.
inactive

###

Assay: Quantitative High-Throughput drug screen in 47 multiple myeloma cell lines against the NCATS MIPE library collection: OCIMY1_PLB cell viability assay (AID 1918979); further: nearly all actives have a fitted effect of over 35% in size;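 on viability: 100% = DMSO-only wells and 0% = cell-free media-only wells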
Conditions: OCI-MY1 myeloma viability, CellTiter-Glo ATP, 48 h; series mostly up to 45.8 µM
Results filed as inconclusive are left out. Activity calls are given as the source filed them. Calls come from the whole dose curve; as a rule, active = well fitted cell-killing curve with a large enough effect; inconclusive = small, poorly fitted or top-dose-only effect, or effect the other way; inactive = no such curve, though single readings can be large or run the other way.
Mark one answer only. Choices: YES (active), NO (inactive)

Some entries whose results are on file:
>  <compound>
O=c1[nH]c(=O)n([C@H]2C[C@@H](O)[C@@H](CO)O2)cc1I

>  <classification>
NO

$$$$
>  <compound>
CC(C)c1onc(-c2c(Cl)cccc2Cl)c1COc1ccc(C=Cc2cccc(C(=O)O)c2)c(Cl)c1

>  <classification>
NO

$$$$
>  <compound>
O=C1C(CCC(O)c2ccc(F)cc2)C(c2ccc(O)cc2)N1c1ccc(F)cc1 (stereo not given)

>  <classification>
NO

$$$$
>  <compound>
CC(NCCc1ccc(O)cc1)C(O)c1ccc(O)cc1 (stereo not given)

>  <classification>
NO

$$$$
>  <compound>
CO[C@H]1/C=C\O[C@@]2(C)Oc3c(C)c(O)c4c(O)c(c5c(nc6cc(C)ccn65)c4c3C2=O)NC(=O)C(C)=CC=C[C@H](C)[C@H](O)[C@@H](C)[C@@H](O)[C@@H](C)[C@H](OC(C)=O)[C@H]1C

>  <classification>
NO

$$$$

Dear all, I need the recorded test outcome for NCc1c[nH]c(=S)n1[C@H]1CCc2c(F)cc(F)cc2C1 , thank you.
NO

Dear all, I need the recorded test outcome for NS(=O)(=O)c1ccc(Nc2nc(OCC3CCCCC3)c3[nH]cnc3n2)cc1 , thank you.
NO

Dear all, I need the recorded test outcome for Cc1cccc(Nc2nc(N[C@@H]3CCCC[C@H]3N)ncc2C(N)=O)c1 , thank you.
YES

Dear all, I need the recorded test outcome for CO[C@H]1O[C@@H]2O[C@@]3(C)CC[C@@H]4[C@@H](C)CC[C@@H]([C@H]1C)[C@@]24OO3 , thank you.
NO

Dear all, I need the recorded test outcome for CCCCC[C@H](O)C=C[C@H]1[C@H](O)CC(=O)[C@H]1CCCCCCC(=O)O , thank you.
NO

Dear all, I need the recorded test outcome for COC(=O)[C@H](c1ccccc1Cl)N1CCc2sccc2C1 , thank you.
NO

Dear all, I need the recorded test outcome for CC1(C)CC(=O)c2c(C(F)(F)F)nn(-c3ccc(C(N)=O)c(NC4CCC(O)CC4)c3)c2C1 (stereo not given) , thank you.
YES

Dear all, I need the recorded test outcome for CC[C@H](C)C(=O)O[C@H]1C[C@H](O)C=C2C=C[C@H](C)[C@H](CC[C@@H](O)C[C@@H](O)CC(=O)O)[C@H]21 , thank you.
NO

Dear all, I need the recorded test outcome for CC=C1C2C=C(C)CC1(N)c1ccc(=O)[nH]c1C2 (stereo not given) , thank you.
NO

Dear all, I need the recorded test outcome for C[C@@H](NC(=O)c1ncnc(N)c1Cl)c1ncc(C(=O)Nc2cc(C(F)(F)F)c(Cl)cn2)s1 , thank you.
YES

Dear all, I need the recorded test outcome for CNC1CCC(N(Cc2cccc(-c3ccncc3)c2)C(=O)c2sc3ccccc3c2Cl)CC1 (stereo not given) , thank you.
YES

Dear all, I need the recorded test outcome for COc1ccc(-c2cc(=O)c3c(O)cc(O[C@@H]4O[C@H](CO[C@@H]5O[C@@H](C)[C@H](O)[C@@H](O)[C@@H]5O)[C@@H](O)[C@H](O)[C@@H]4O)cc3o2)cc1O , thank you.
NO

Dear all, I need the recorded test outcome for Cc1c(-c2cccc3c(CCCOc4cccc5ccccc45)c(C(=O)O)n(Cc4cccnc4)c23)c(COc2ccc(N3CCN([S+](=O)([O-])N(C)C)CC3)cc2)nn1C , thank you.
NO

Dear all, I need the recorded test outcome for CC(C)(OCc1nn(Cc2ccccc2)c2ccccc12)C(=O)O , thank you.
NO

Dear all, I need the recorded test outcome for CC(C)=CCCC(C)=CCCC(C)=CCCC(C)=CCCC(C)=CCCC(C)=CCCC(C)=CCCC(C)=CCCC(C)=CCO , thank you.
NO

Dear all, I need the recorded test outcome for CN(C)N=Nc1nc[nH]c1C(N)=O , thank you.
NO

Dear all, I need the recorded test outcome for Nc1ncnc2c1ncn2[C@@H]1O[C@H](CO)[C@@H](O)[C@@H]1O , thank you.
NO
